# viability at 24 h, 50 µM listing for each entry below
experiment: Cytotoxicity against BAEC assessed as cell viability at 50 uM after 24 hrs by MTT assay; parameters: species or system Bos taurus; conditions: cattle, BAEC cells; read-out: Activity
Use % as the unit, but write only the number.

Previously resolved entries follow.
O=C(c1ccc(O)cc1)c1cc2cc(O)ccc2oc1=O; 93
Cc1cccc2cc(C(=O)c3ccc(O)cc3)c(=O)oc12; 101
O=C(c1ccc(O)c(O)c1)c1cc2cc(Br)cc(O)c2oc1=O; 71
O=C(c1ccccc1)c1cc2cc(O)ccc2oc1=O; 86
O=C(c1ccc(O)c(O)c1)c1cc2cc(Br)ccc2oc1=O; 92

Please report the measured viability at 24 h, 50 µM for O=C(c1ccccc1)c1cc2cc(Br)cc(O)c2oc1=O
93

# return recorded viability at 24 h, 50 µM for entry O=C(c1ccc(O)cc1)c1cc2cc(Br)ccc2oc1=O
104

Please indicate viability at 24 h, 50 µM recorded for O=C(c1ccc(O)c(O)c1)c1cc2cccc(O)c2oc1=O
63

Note down viability at 24 h, 50 µM recorded for O=C(c1ccc(O)cc1)c1cc2ccccc2oc1=O
44

* * *

test: Cytotoxicity against BAEC assessed as cell viability at 10 uM after 24 hrs by MTT assay; parameters: species or system Bos taurus; settings: cattle, BAEC cells; read-out: Activity
experimentalReadout: viability at 24 h, 10 µM
# output: number + unit

Please review the following examples before continuing.
O=C(c1ccc(O)cc1)c1cc2cc(O)ccc2oc1=O; 68%
O=C(c1ccc(O)cc1)c1cc2cc(Br)ccc2oc1=O; 95%
O=C(c1ccc(O)c(O)c1)c1cc2cccc(O)c2oc1=O; 49%
O=C(c1ccccc1)c1cc2cc(O)ccc2oc1=O; 88%
O=C(c1ccc(O)c(O)c1)c1cc2cc(Br)cc(O)c2oc1=O; 64%
O=C(c1ccc(O)c(O)c1)c1cc2cc(Br)ccc2oc1=O; 102%
O=C(c1ccccc1)c1cc2cc(Br)cc(O)c2oc1=O; 96%
O=C(c1ccc(O)cc1)c1cc2ccccc2oc1=O; 76%

Turning now to a further molecule:
Given Cc1cccc2cc(C(=O)c3ccc(O)cc3)c(=O)oc12 , respond with its viability at 24 h, 10 µM.
87%

* * *

# viability at 24 h, 20 µM per record follows
assay: Cytotoxicity against BAEC assessed as cell viability at 20 uM after 24 hrs by MTT assay; parameters: species or system Bos taurus; conditions: cattle, BAEC cells; read-out: Activity
Provide the measurement as a number trailed by its unit.

Give a short answer stating reported viability at 24 h, 20 µM for O=C(c1ccc(O)c(O)c1)c1cc2cc(Br)cc(O)c2oc1=O .
23%

* * *

# viability at 24 h, 20 µM per entry
experiment: Cytotoxicity against BAEC assessed as cell viability at 20 uM after 24 hrs by MTT assay; design: species or system Bos taurus; details: cattle, BAEC cells; read-out: Activity
All answers are understood in %, so give the number only.

Check out these entries, answers already filled in.
O=C(c1ccc(O)cc1)c1cc2cc(O)ccc2oc1=O; 94
O=C(c1ccc(O)c(O)c1)c1cc2cc(Br)ccc2oc1=O; 100
O=C(c1ccc(O)c(O)c1)c1cc2cccc(O)c2oc1=O; 68
O=C(c1ccccc1)c1cc2cc(O)ccc2oc1=O; 95

Give recorded viability at 24 h, 20 µM. Cc1cccc2cc(C(=O)c3ccc(O)cc3)c(=O)oc12
82

Give viability at 24 h, 20 µM for O=C(c1ccc(O)cc1)c1cc2cc(Br)ccc2oc1=O
93

Give a short answer stating reported viability at 24 h, 20 µM for O=C(c1ccccc1)c1cc2cc(Br)cc(O)c2oc1=O .
101

Query viability at 24 h, 20 µM for O=C(c1ccc(O)cc1)c1cc2ccccc2oc1=O
60
